Measured inhibition at 1 µM, listed per entry.
# test.target: IGF1R (Homo sapiens, UniProt P08069)
# Sequence (P08069 31-1367): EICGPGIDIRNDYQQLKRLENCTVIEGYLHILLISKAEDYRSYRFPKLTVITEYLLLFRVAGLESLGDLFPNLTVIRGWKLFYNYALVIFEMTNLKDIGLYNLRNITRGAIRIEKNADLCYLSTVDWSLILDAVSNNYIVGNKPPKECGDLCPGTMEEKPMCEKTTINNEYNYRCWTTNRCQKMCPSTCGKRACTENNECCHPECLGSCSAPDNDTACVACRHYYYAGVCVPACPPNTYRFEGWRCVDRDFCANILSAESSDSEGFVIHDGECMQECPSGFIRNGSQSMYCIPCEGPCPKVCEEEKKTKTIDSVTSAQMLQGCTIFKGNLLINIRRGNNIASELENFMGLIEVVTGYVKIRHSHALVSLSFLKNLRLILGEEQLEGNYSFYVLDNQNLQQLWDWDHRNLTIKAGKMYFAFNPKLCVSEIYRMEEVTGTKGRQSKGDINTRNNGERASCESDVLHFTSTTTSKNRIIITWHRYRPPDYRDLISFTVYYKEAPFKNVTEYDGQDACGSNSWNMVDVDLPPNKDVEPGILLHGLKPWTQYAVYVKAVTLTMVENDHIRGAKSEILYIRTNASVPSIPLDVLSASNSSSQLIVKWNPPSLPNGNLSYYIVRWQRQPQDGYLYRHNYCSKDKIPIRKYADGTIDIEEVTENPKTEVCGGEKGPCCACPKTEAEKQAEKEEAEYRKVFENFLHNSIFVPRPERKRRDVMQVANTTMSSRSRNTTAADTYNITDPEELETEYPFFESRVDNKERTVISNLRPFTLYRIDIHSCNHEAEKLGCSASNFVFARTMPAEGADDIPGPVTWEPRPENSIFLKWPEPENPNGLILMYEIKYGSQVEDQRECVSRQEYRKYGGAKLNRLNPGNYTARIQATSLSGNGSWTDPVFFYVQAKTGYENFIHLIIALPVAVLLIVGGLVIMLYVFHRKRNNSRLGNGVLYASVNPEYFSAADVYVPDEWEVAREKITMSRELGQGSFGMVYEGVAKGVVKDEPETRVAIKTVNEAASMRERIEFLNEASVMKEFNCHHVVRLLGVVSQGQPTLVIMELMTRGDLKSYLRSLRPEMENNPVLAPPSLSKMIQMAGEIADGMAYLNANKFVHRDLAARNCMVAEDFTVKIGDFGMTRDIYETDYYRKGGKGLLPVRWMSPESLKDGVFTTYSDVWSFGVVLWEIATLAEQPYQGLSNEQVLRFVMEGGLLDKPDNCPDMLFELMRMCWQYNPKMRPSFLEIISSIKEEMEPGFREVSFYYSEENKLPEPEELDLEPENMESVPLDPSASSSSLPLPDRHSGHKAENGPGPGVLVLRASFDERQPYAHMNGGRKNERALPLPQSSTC
# protocol.summary: KINOMEscan competition binding
# particulars: read-out: %Inh IGF1R
readout.type: inhibition at 1 µM (%)

compound="Cn1cc(-c2cnc(N)c3c(-c4ccc5c(c4)CCN5C(=O)Cc4ccccc4)csc23)cn1 [UNC10225012A]" readout_type="inhibition at 1 µM" test_result=0
compound="O=c1cc(N2CCOCC2)nc2n(Cc3cccc(Cl)c3Cl)c(C3CC3)nn12 [UNC10225469A]" readout_type="inhibition at 1 µM" test_result=0
compound="CS(=O)(=O)Cc1ccc(Nc2nccc(-c3c(-c4cccc(NC(=O)C5CCCCC5)c4)nn4ncccc34)n2)cc1 [UNC10225159A]" readout_type="inhibition at 1 µM" test_result=68
compound="COc1cccc(OC)c1C(=O)Nc1cccc(-c2nn3ccccc3c2-c2ccnc(Nc3cccc(F)c3)n2)c1 [UNC10225310A]" readout_type="inhibition at 1 µM" test_result=7
compound="Cc1ccc(NC(=O)Nc2cccc(C(F)(F)F)c2)cc1 [UNC10225187A]" readout_type="inhibition at 1 µM" test_result=0

Taken from paper PMC5540273.
